Target: Rac GTPase-activating protein 1 (Homo sapiens) (UniProt Q9H0H5)
Sequence (Q9H0H5 whole entry, looked up): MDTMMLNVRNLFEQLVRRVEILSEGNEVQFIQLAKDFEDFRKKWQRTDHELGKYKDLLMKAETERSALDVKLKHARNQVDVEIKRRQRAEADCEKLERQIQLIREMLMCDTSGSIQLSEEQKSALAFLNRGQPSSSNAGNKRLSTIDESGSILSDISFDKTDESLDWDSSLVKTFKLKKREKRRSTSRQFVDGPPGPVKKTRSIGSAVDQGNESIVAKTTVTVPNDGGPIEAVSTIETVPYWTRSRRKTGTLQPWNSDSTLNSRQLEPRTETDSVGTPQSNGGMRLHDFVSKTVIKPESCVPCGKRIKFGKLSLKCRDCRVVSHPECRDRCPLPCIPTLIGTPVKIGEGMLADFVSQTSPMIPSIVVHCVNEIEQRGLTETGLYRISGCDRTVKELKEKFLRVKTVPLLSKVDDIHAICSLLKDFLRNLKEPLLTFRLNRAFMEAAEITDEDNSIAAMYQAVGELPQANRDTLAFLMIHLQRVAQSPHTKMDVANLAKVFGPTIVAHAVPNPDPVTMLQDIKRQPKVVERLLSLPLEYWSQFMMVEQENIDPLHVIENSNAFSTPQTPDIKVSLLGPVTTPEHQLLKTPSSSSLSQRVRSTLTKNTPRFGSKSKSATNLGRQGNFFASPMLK
Assay: blockers of MgcRacGAP-driven Rac1 GTP hydrolysis – biochemical, ADP Hunter fluorescence, primary and confirmatory, confirmation (AID 624330);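 note: fluorescence reports GDP produced by GAP-driven GTP hydrolysis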
Conditions: MgcRacGAP-stimulated Rac1 GTP hydrolysis, at 30 µM, hits give high values, GST-tagged Rac1 F28L mutant substrate
Screen size: about 340,000 compounds; about 2,100 (0.62%) were called active. Not all results are given here. Entries with a potency or affinity are not part of this list.
What inhibition was measured for each of the following?
Give bare numbers, in %.

{"columns": ["molecule", "observed.value"],
 "data": [
  ["CC(=O)Nc1ccc(S(=O)(=O)Nc2cc(C)cn(Cc3ccccc3)c2=O)cc1", 3.18],
  ["CN(c1ccccc1)c1ccc(/C=N/NC(=O)CC#N)cc1", 10.3],
  ["COc1ccc(-n2ncc3c2CC(C)(C)CC3NC(=O)CCn2cncn2)cc1 (stereo not drawn)", 4.79],
  ["Cc1ccc(NC(=O)C2Cc3ccccc3C(=O)O2)cc1 (stereo not drawn)", -7.83],
  ["CCCN(CCC)Cc1c(C(=O)N/N=C/CCc2ccccc2)nnn1-c1nonc1N", 11.3]
]}

Lab note: each molecule below needs its inhibition filled in.
1. Cc1cccc(C(C)Nc2ccc([N+](=O)[O-])cn2)c1 (stereo not drawn)
2. O=C(Nc1cccc(-n2cnnn2)c1)c1cc(Cl)nc(Cl)c1
3. O=C(CCc1nc2ccccc2s1)NCc1ccccc1F
4. CC(=O)c1cccc(OC(=O)C2=CC=CN3CCS(=O)(=O)N=C23)c1
5. CN(C)c1ccc(C=Nc2ccccc2)cc1
6. Oc1ccc(Br)cc1C=Nc1ccc(Cl)cc1
7. CSCCC(=O)N(C)CC1CCN(CCc2cccc(C(F)(F)F)c2)CC1

1.95
9.64
3.81
7.32
0.89
8.07
-11.6

Lab note: each molecule below needs its inhibition filled in.
1. CCN(CC)c1ccc(/C=N/NC(=O)CC(C)C)cc1
2. O=C(Oc1cccnc1)c1cc(S(=O)(=O)N2CCCCC2)ccc1Cl
3. COc1ccc(NC(=O)c2cc(OC)c(OC)c(OC)c2)cn1
4. CCN(CC)c1ccc(/C=N/NC(=O)C(O)c2ccccc2)cc1 (stereo not drawn)
5. O=C1N/C(=C\c2ccccc2)C(O)=C1C=NCc1ccccc1
6. C/C(=C\C(=O)c1ccc(F)cc1)Nc1ccc(N2CCOCC2)cc1
7. CCOc1ccc(N(CC(=O)Nc2ccccc2OC)S(C)(=O)=O)cc1

5.15
2.68
7.64
9.04
3.17
15.3
9.6

Lab note: each molecule below needs its inhibition filled in.
1. CN1CCN(NS(=O)(=O)c2ccc(Cl)s2)CC1
2. CCOc1ccc(C(C(=O)NCC2CCCO2)N(Cc2ccccc2)C(=O)c2snc(C(N)=O)c2N)cc1 (stereo not drawn)
3. CCN(CC)c1ccc(C=N/C(C#N)=C(\N)C#N)cc1

1. 13.4
2. 6.27
3. 6.79

State, for Rac GTPase-activating protein 1 (Homo sapiens) (UniProt Q9H0H5), measured inhibition of the molecule listed here: Cc1ccc([C@H]2C[C@@H](O)[C@H](n3cc(COC(=O)c4ccccc4)nn3)CN2Cc2cccs2)cc1
-0.67

----------
Target: Rac GTPase-activating protein 1 (Homo sapiens) (UniProt Q9H0H5)
Test: blockers of MgcRacGAP-driven Rac1 GTP hydrolysis – biochemical, ADP Hunter fluorescence, primary and confirmatory, confirmation (AID 624330);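 note: fluorescence reports GDP produced by GAP-driven GTP hydrolysis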
Conditions: MgcRacGAP-stimulated Rac1 GTP hydrolysis, at 30 µM, hits give high values, GST-tagged Rac1 F28L mutant substrate
Out of some 340,000 compounds screened, about 2,100 (0.62%) were called active. The list is a sample of the results. Potency and affinity values are given separately.
measure.name: inhibition

# count of solved cases: 5
{"columns": ["compound", "observed.value"],
 "data": [
  ["CC(C(=O)NC(=O)NC1CCCCC1)N1CCN(c2ccccn2)CC1 (stereo unspecified)", "4.4% (inactive)"],
  ["CN1CCN(C(=O)NC2CCCCC2)CC1", "13% (inactive)"],
  ["COc1cc(NC(=O)CN2C(=O)NC(C)(CCC(C)C)C2=O)cc(OC)c1 (stereo unspecified)", "-1.63% (inactive)"],
  ["COc1ccc(CCNC(=O)CCOc2ccc(C(C)(C)C)cc2)cc1OC", "3.35% (inactive)"],
  ["CN1CCC(NC(=O)NC2CCCCC2)CC1", "4.99% (inactive)"]
]}

Lab note: each compound below needs its inhibition filled in.
1. CC(C(=O)NC1CCCC1)N1CCN(Cc2ccccc2)CC1 (stereo unspecified)
2. CCN1CCN(C(C(=O)NC2CCCCC2)c2ccc(Cl)cc2)CC1 (stereo unspecified)
3. COc1ccc(CCNC(=O)C(=O)NCC2CCCN2S(=O)(=O)c2ccccc2)cc1OC (stereo unspecified)
4. CCN(CC)c1ccc(NC(=O)c2cncc(Br)c2)cc1
5. CC(=O)c1sc(NC(=O)c2cccc(N3C(=O)CCC3=O)c2)nc1-c1ccccc1
6. O=C(Oc1cccc2cccnc12)c1ccco1

["9.35% (inactive)", "2.93% (inactive)", "1.68% (inactive)", "30.6% (inactive)", "2.55% (inactive)", "12.4% (inactive)"]

----------
Target: Rac GTPase-activating protein 1 (Homo sapiens) (UniProt Q9H0H5)
Test: blockers of MgcRacGAP-driven Rac1 GTP hydrolysis – biochemical, ADP Hunter fluorescence, primary and confirmatory, confirmation (AID 624330);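 note: fluorescence reports GDP produced by GAP-driven GTP hydrolysis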
Conditions: MgcRacGAP-stimulated Rac1 GTP hydrolysis, at 30 µM, hits give high values, GST-tagged Rac1 F28L mutant substrate
The campaign covered roughly 340,000 compounds. About 2,100 (0.62%) were called active. Only a sample is shown. Measured potencies and affinities stand elsewhere.
measure.name: inhibition (%)
Numbers only, in %.

{"columns": ["molecule", "unit.symbol", "inhibition"],
 "data": [
  ["CCOc1cc(/C=N/NC(=O)c2cccnc2)ccc1OCC(N)=O", "%", 3.29],
  ["COc1ccc(S(=O)(=O)N2CCCCC2)cc1NC(=O)CCc1cc(OC)c(OC)c(OC)c1", "%", 2.57],
  ["CCCCNC(=O)Cn1cnc2c(cnn2-c2ccc(C)cc2)c1=O", "%", 6.17]
]}

Lab note: each molecule below needs its inhibition filled in.
1. CCn1c(=O)c2cc(C(=O)N3CCN(C)CC3)sc2c2ccccc21
2. Cc1ccc(S(=O)(=O)N2CCN(C(=O)N(C)C)CC2)cc1
3. Cc1cc(Br)ccc1NC(=O)CCSc1ccccc1
4. CC(c1nccs1)N(C)C(=O)CCc1nnc(Cc2c[nH]c3ccccc23)o1 (stereo not given)
5. O=C(COC(=O)CCS(=O)(=O)c1ccc(Cl)cc1)Nc1ncc(Cl)cc1Cl
6. O=C(C[C@H]1C/C=C\C[C@@H](Cc2ccc(F)cc2)C(=O)OC[C@H]2CCCN2C1=O)N[C@@H](CO)Cc1ccccc1
7. COc1cc(-c2n[nH]c(=S)n2-c2ccccc2C(F)(F)F)cc(OC)c1OC

1: 7.75; 2: 2.84; 3: 2.79; 4: 11.5; 5: -0.72; 6: 4.35; 7: 0.91

----------
What inhibition was measured for each of the following?
Target: Rac GTPase-activating protein 1 (Homo sapiens)
Assay: blockers of MgcRacGAP-driven Rac1 GTP hydrolysis – biochemical, ADP Hunter fluorescence, primary and confirmatory, confirmation (AID 624330);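 note: fluorescence reports GDP produced by GAP-driven GTP hydrolysis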
Conditions: MgcRacGAP-stimulated Rac1 GTP hydrolysis, at 30 µM, hits give high values, GST-tagged Rac1 F28L mutant substrate
In all, about 340,000 compounds went through this assay and about 2,100 (0.62%) were called active. The list is a sample of the results. Potency and affinity values are given separately.
Numbers only, in %.

# count of solved cases: 5
{"columns": ["compound", "observed.value"],
 "data": [
  ["CCOC(=O)C1=CN(Cc2cccc(-c3ccc(F)cc3)c2)S(=O)(=O)N(C)C1C (stereo unspecified)", 8.9],
  ["NC(=S)c1ccc(OCCCc2ccccc2)cc1", 8.89],
  ["C=CCC1NS(=O)(=O)O[C@H](CCCC)[C@@H]1O (stereo partly specified)", -14.4],
  ["COc1ccccc1C1C2=C(N=C3SCC(=O)N31)c1ccccc1CC2 (stereo unspecified)", 7],
  ["O=C(CCSCc1ccccc1Cl)NC1CCCCC1", 5.37]
]}

Next up:
State, for Rac GTPase-activating protein 1 (Homo sapiens), measured inhibition of the compound listed here: CC(C)C(=O)Nc1ccc2c(c1)nc1n2CCSC1
5.79

----------
Target: Rac GTPase-activating protein 1 (Homo sapiens) (UniProt Q9H0H5)
Assay: blockers of MgcRacGAP-driven Rac1 GTP hydrolysis – biochemical, ADP Hunter fluorescence, primary and confirmatory, confirmation (AID 624330);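 note: fluorescence reports GDP produced by GAP-driven GTP hydrolysis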
Conditions: MgcRacGAP-stimulated Rac1 GTP hydrolysis, at 30 µM, hits give high values, GST-tagged Rac1 F28L mutant substrate
Among all 340,000 compounds or so, about 2,100 (0.62%) were called active. Not all results are given here. Entries with a potency or affinity are not part of this list.
What inhibition was measured for each of the following?

# count of solved cases: 8
{"columns": ["molecule", "observed.value"],
 "data": [
  ["Cc1cccc(C(=O)OCC(=O)N2CCCCCC2)c1C", "2.72% (inactive)"],
  ["Cc1cccc(N2N=C(C(=O)O)CCC2=O)c1", "-5.61% (inactive)"],
  ["O=C(CNCc1ccco1)Nc1cc(S(=O)(=O)N2CCOCC2)ccc1N1CCCC1", "24.8% (inactive)"],
  ["O=C(CCNC(=O)c1ccco1)NCc1ccc(C(=O)O)cc1", "10.3% (inactive)"],
  ["Cc1ccc(S(=O)(=O)N2CCOCC2)cc1NC(=O)CNCc1ccccc1Cl", "8.04% (inactive)"],
  ["c1ccc2nc(-c3nccs3)ccc2c1", "1.49% (inactive)"],
  ["CN(CC(=O)Nc1ccc(F)cc1)C(=O)c1cccc(NS(=O)(=O)c2ccccc2)c1", "5.16% (inactive)"],
  ["COCC(C)NCc1cccc(C)c1 (stereo not given)", "5.01% (inactive)"]
]}

Lab note: each molecule below needs its inhibition filled in.
1. CCc1ccccc1-n1nnnc1-c1cnccc1C(F)(F)F
2. Cc1cccc(N2C(=O)CCC2=O)c1
3. Cc1cc(=O)c(C(=O)O)nn1-c1cccc(C(F)(F)F)c1

1: 4.03% (inactive); 2: 7.43% (inactive); 3: 6.55% (inactive)

Lab note: each molecule below needs its inhibition filled in.
1. Oc1ccc(-c2nccc(-c3cccs3)n2)cc1
2. COc1cccc(CNCc2cccc(Br)c2)c1OC
3. O=C(NCC(c1ccco1)N1CCCC1)c1cccc(NS(=O)(=O)c2ccccc2)c1 (stereo not given)
4. FC(F)(F)c1cccc(N2CCc3cn[nH]c32)c1
5. O=C(CCN1CCN(c2ccccc2)CC1)NNC(=O)c1ccccc1

9.71% (inactive)
24.4% (inactive)
7.02% (inactive)
12.6% (inactive)
10.2% (inactive)

Lab note: each molecule below needs its inhibition filled in.
1. O=C(Nc1cccc(S(=O)(=O)N2CCCCC2)c1)c1ccco1
2. CCOc1cccc(CN2CCN(c3cccc(C(F)(F)F)c3)CC2)c1O

1: -7.5% (inactive); 2: 0.147% (inactive)

Lab note: each molecule below needs its inhibition filled in.
1. O=C(c1cc(Br)c[nH]1)N1CCSCC1
2. CN(CC(=O)Nc1ccc(F)c(F)c1F)C(=O)CN1C(=O)NC2(CCCC2)C1=O
3. Cc1cccc(NC(=O)N2CCCCCC2)c1
4. CC(NC(=O)COc1cccc(Br)c1)C(=O)O (stereo not given)

9.76% (inactive)
9.6% (inactive)
4.32% (inactive)
3.37% (inactive)

Lab note: each molecule below needs its inhibition filled in.
1. COCC(=O)N1CCN(c2cccc(C(F)(F)F)c2)CC1
2. COCC(C)NCc1cc(Br)ccc1OC (stereo not given)
3. Cc1ccccc1OCC(=O)Nc1ccccc1N1CCC(C)CC1

1: 4.48% (inactive); 2: 26.2% (inactive); 3: 4.53% (inactive)
